Assignment: determine reported rel max FI (20E), MS for the given molecules.
# subject.of.test: Manduca sexta EcR (MsEcR) (Manduca sexta)
# Sequence (P49883 293-531 limits assumed): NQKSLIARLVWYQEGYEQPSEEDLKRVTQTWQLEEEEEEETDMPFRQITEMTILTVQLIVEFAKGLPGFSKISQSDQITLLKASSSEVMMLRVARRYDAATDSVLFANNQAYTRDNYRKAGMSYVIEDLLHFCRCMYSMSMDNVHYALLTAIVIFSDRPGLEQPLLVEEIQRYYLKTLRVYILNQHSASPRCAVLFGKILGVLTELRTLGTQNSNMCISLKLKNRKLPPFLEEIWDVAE
# measurement.protocol: Two-hybrid gene switch assay, MsEcR-CDEF in NIH3T3 cells
# recorded.conditions: MsEcR; max fold induction at any concentration relative to 20E
Numbers only.

// below: answered molecules
INSERT INTO results (molecule, property, reported_value) VALUES
  ('CO[C@H]1C[C@@]2(C)[C@@H](C[C@H]1O)C(=O)C=C1[C@@H]2CC[C@]2(C)[C@@H]([C@@](C)(O)[C@@H](CCC(C)(C)O)OC)CC[C@@]12O [20E-2,22-dimethyl ether]', 'rel max FI (20E), MS', 0.15),
  ('CO[C@H]1C[C@@]2(C)[C@@H](C[C@H]1O)C(=O)C=C1[C@@H]2CC[C@]2(C)[C@@H]([C@@](C)(O)[C@H](O)CCC(C)(C)O)CC[C@@]12O [20E-2-methyl ether]', 'rel max FI (20E), MS', 0.16),
  ('CO[C@@H]1C[C@H]2C(=O)C=C3[C@H](CC[C@]4(C)[C@@H]([C@@](C)(O)[C@H](O)CCC(C)(C)O)CC[C@@]34O)[C@@]2(C)C[C@@H]1O [20E-3-methyl ether]', 'rel max FI (20E), MS', 1.15);

Hi team, please reply with rel max FI (20E), MS for each item in this list.
1. COC1C[C@H]2C(=O)C=C3[C@H](CC[C@]4(C)[C@@H]([C@@](C)(O)C(CCC(C)(C)O)OC)CC[C@@]34OC)[C@@]2(C)CC1OC (stereo partly drawn) [20E-2,3,14,22-tetramethyl ether]
2. CO[C@@H]1C[C@H]2C(=O)C=C3[C@H](CC[C@]4(C)[C@@H]([C@@](C)(O)[C@@H](CCC(C)(C)O)OC)CC[C@@]34O)[C@@]2(C)C[C@@H]1O [20E-3,22-dimethyl ether]

[0.00, 0.82]

Could you tell me which rel max FI (20E), MS is on file for CO[C@H](CCC(C)(C)O)[C@](C)(O)C1CC[C@@]2(O)C3=CC(=O)C4C[C@@H](O)[C@@H](O)CC4(C)C3CCC12C (stereo partly drawn) [20E-22-methyl ether] ?
1.29

###

# subject.of.test: Bemisia argentifolii EcR (BaEcR-DEF) (Bemisia argentifolii (Bemisia tabaci biotype B / MEAM1), UniProt A0A6M3RDR8)
# Sequence (P28702 298-449): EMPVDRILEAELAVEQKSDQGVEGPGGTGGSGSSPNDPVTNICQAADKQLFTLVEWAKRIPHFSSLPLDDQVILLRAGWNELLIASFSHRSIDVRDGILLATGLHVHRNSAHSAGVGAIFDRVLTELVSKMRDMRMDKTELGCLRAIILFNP
# Sequence (A0A6M3RDR8 entry or part of it): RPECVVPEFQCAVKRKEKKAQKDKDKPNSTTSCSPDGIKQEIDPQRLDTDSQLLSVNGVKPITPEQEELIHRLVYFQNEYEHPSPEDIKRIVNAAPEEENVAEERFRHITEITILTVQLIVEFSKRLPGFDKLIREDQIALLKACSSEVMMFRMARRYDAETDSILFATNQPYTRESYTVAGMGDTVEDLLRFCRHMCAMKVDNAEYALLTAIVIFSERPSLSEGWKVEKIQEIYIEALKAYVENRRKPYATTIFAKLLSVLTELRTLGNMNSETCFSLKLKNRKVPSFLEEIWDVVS
# measurement.protocol: Two-hybrid gene switch assay, BaEcR-DEF in NIH3T3 cells
# recorded.conditions: read-out: EC50 (μM), BA; BaEcR, NIH3T3 cells, luciferase, 48 h, ligand 0.01-33 μM
property: EC50

Could you tell me which EC50 is on file for COC1C[C@H]2C(=O)C=C3[C@H](CC[C@]4(C)[C@@H]([C@@](C)(O)C(CCC(C)(C)O)OC)CC[C@@]34OC)[C@@]2(C)CC1OC (stereo partly shown) [20E-2,3,14,22-tetramethyl ether] ?
> 33 µM

###

# subject.of.test: TmEcR (GAL4-EcR DEF with VP16-RXR partner) (Tenebrio molitor)
# Sequence (O02035 194-491): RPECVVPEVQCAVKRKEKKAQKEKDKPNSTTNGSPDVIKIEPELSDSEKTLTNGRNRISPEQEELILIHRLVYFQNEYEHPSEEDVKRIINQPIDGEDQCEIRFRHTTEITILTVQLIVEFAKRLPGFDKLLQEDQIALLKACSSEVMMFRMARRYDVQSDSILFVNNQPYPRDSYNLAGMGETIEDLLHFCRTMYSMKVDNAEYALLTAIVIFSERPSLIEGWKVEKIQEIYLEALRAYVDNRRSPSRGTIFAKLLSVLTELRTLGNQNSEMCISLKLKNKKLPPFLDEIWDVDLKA
# Sequence (P28704 1-520 partner): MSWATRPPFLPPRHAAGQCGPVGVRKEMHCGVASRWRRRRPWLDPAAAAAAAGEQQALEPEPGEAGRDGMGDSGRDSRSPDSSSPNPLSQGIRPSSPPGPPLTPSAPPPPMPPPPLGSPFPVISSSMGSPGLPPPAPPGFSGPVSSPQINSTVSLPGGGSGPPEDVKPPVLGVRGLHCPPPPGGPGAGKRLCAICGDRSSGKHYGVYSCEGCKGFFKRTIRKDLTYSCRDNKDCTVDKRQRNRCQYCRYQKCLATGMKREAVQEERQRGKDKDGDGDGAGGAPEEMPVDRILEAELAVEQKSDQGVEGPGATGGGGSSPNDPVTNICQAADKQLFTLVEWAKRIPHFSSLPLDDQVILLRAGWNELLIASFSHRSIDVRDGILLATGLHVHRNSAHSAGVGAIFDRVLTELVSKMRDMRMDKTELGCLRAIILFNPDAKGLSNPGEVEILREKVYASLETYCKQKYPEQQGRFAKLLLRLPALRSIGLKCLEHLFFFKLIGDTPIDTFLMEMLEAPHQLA
# measurement.protocol: Two-hybrid gene switch assay, luciferase reporter, TmEcR, mouse NIH3T3 cells
# recorded.conditions: EC50, FIG. 14A/14B, GAL4-EcR(DEF)
property: EC50

INSERT INTO results (compound, reported_value) VALUES
  ('CC(=O)C1CCC2(O)C3=CC(=O)C4CC(O)C(O)CC4(C)C3CCC12C (stereo not drawn) [poststerone]', '> 33 µM'),
  ('CC(C)(O)CC[C@@H](O)[C@](C)(O)[C@H]1CC[C@@]2(O)C3=CC(=O)[C@@H]4C[C@@H](O)[C@@H](O)C[C@]4(C)[C@H]3[C@H](O)C[C@]12C [turkesterone]', '> 33 µM'),
  ('CC(C)(O)CC[C@@H](O)[C@](C)(O)[C@H]1CC[C@@]2(O)C3=C[C@@H](O)[C@@H]4C[C@@H](O)[C@@H](O)C[C@]4(C)[C@H]3CC[C@]12C [Compound 6b-hydroxy-20-hydroxyecdysone]', '~20 µM'),
  ('CC(=O)O[C@H](CCC(C)(C)O)[C@](C)(O)[C@H]1CC[C@@]2(O)C3=CC(=O)[C@@H]4C[C@@H](O)[C@@H](O)C[C@]4(C)[C@H]3CC[C@]12C [Compound 20-hydroxyecdysone-22-acetate]', '~2 µM');

Hi team, please reply with EC50 for each item in this list.
1. CC(C)CC[C@@H](O)[C@](C)(O)[C@H]1CC[C@@]2(O)C3=CC(=O)[C@@H]4C[C@@H](O)[C@@H](O)C[C@]4(C)[C@H]3CC[C@]12C [PoA, ponasterone A, reference compound]
2. C=C(C)CC[C@@H](O)[C@](C)(O)[C@H]1CC[C@@]2(O)C3=CC(=O)[C@@H]4C[C@@H](O)[C@@H](O)C[C@]4(C)[C@H]3CC[C@]12C
3. CC(C)(O)CC[C@@H](OC(=O)c1ccc[nH]1)[C@](C)(O)[C@H]1CC[C@@]2(O)C3=CC(=O)[C@@H]4C[C@@H](O)[C@@H](O)C[C@]4(C)[C@H]3CC[C@]12C
4. CC(C)(O)CC[C@@H](O)[C@](C)(O)[C@H]1CC[C@@]2(O)C3=CC(=O)[C@@H]4C[C@H]5OC(C)(C)O[C@H]5C[C@]4(C)[C@H]3CC[C@]12C [20-hydroxyecdysone-2,3-acetonide]
5. CC(C)(O)CC[C@@H](O)[C@](C)(O)[C@H]1CC[C@@]2(O)C3=CC(=O)[C@@H]4C[C@@H](O)[C@@H](O)[C@@H](O)[C@]4(C)[C@H]3CC[C@]12C [integristerone A]

0.044 µM
1.4 µM
~20 µM
~10 µM
~8 µM

Hi team, please reply with EC50 for each item in this list.
1. C[C@H](CO)CC[C@@H](O)[C@](C)(O)[C@H]1CC[C@@]2(O)C3=CC(=O)[C@@H]4C[C@@H](O)[C@@H](O)C[C@]4(C)[C@H]3CC[C@]12C [(25S)-inokosterone]
2. CC(C)(O)CC[C@@H](O)[C@](C)(O)[C@H]1CC[C@@]2(O)C3=CC(=O)[C@@H]4C[C@@H](O)[C@@H](O)C[C@]4(C)C3=CC[C@]12C [Compound 25-hydroxydacryhainansterone]

~10 µM
~20 µM

###

Assignment: determine reported pEC50 for the given compounds.
# subject.of.test: wild-type Drosophila melanogaster EcR (DmEcR; GAL4-EcR DEF with VP16-RXR-USP chimera) (Drosophila melanogaster, UniProt P34021)
# Sequence (P34021 with tags, fused parts or gaps limits assumed): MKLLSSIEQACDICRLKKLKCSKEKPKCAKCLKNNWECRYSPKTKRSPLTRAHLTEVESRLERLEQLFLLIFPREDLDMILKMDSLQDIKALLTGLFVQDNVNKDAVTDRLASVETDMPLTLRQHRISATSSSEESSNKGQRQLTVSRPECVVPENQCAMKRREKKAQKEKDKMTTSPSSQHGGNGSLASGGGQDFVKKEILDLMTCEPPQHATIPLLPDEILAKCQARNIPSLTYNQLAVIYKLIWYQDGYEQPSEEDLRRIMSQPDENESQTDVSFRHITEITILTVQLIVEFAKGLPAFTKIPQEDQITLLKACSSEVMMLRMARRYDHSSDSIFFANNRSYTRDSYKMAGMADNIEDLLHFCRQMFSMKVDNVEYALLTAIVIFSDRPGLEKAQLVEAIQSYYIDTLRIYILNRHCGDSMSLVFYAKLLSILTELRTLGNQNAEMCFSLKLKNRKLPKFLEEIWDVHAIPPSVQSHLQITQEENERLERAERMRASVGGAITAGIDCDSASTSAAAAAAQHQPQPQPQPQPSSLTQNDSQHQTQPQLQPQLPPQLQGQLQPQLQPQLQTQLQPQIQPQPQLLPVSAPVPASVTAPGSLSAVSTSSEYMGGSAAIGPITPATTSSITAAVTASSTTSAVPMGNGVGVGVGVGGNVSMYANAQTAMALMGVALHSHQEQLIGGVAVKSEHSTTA
# measurement.protocol: Two-hybrid gene switch assay, luciferase reporter, wild-type DmEcR, mouse NIH3T3 cells
# Assay type: cell-based
# recorded.conditions: EC50, FIG. 14A/14B, GAL4-EcR(DEF) with VP16-RXR-USP chimera
pEC50: −log10 of the molar value.

Hi team, please reply with pEC50 for each item in this list.
1. CCC(CC(O)C(C)(O)C1CCC2(O)C3=CC(=O)C4CC(O)C(O)CC4(C)C3CCC12C)C(C)(C)O (stereo not drawn)
2. C[C@H]([C@H](O)CCC(C)(C)O)[C@H]1CC[C@@]2(O)C3=CC(=O)[C@@H]4C[C@@H](O)[C@@H](O)C[C@]4(C)[C@H]3CC[C@]12C
3. CC(C)(O)CC[C@@H](O)[C@](C)(O)[C@H]1CC[C@@]2(O)C3=C[C@@H](O)[C@@H]4C[C@@H](O)[C@@H](O)C[C@]4(C)[C@H]3CC[C@]12C [Compound 6b-hydroxy-20-hydroxyecdysone]

1. ~5.30
2. < 4.48
3. ~4.70
